Origin of values: patent US20210139545A1

// reported (Δ(A405-A595)/Δt)max per item
# Tested Target: T1, E. coli alkaline phosphatase Strep-tag®II fusion protein (E. coli, UniProt P00634 22-471 = phosphatase)
# T1 construct: mature; also called BAP-StrepII; BAP-StrepIII
# T1 sequence (P00634 22-471): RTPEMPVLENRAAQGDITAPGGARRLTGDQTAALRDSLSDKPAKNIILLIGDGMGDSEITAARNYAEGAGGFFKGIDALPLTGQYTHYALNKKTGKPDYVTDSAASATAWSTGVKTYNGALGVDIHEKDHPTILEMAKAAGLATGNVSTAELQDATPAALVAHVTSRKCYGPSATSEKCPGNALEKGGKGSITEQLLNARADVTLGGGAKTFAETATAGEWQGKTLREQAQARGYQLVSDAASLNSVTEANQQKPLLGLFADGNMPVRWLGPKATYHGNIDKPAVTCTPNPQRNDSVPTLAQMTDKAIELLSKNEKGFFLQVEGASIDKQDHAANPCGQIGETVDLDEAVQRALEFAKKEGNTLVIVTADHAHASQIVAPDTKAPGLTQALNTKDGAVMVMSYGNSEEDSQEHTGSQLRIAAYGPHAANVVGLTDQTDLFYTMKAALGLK
# Test Name: ELISA, mutein coated, BAP-StrepII titrated
Lab book: enter the figure in mOD, no units written.

mutein“1”-m41 (designed binder, Library 3 clone on mutein “1”) EAGITGTWYNQLGSTFIVTAGADGALTGTYVTARGNAESRYVLTGRYDSAPATDGSGTALGWTVAWKNNYRNAHSATTWSGQYVGGAEARINTQWLLTSGTTEAWYSTLVGHDTFTKVKPSAAS : 613
mutein“1”-m301 (designed binder, Library 7 clone on mutein “1”, 118 and 119 deleted) EAGITGTWYNQLGSTFIVTAGADGALTGTYVTARGNAESRYVLTGRYDSAPATDGSGTALGWTVAWKNNYRNAHSATTWSGQYVGGAEARINTQWLLTSGTTEHWMSTLVGHDTFTKVKPSAAS : 725

Write down (Δ(A405-A595)/Δt)max measured for item mutein“1”-m36 (designed binder, Library 3 clone on mutein “1”) EAGITGTWYNQLGSTFIVTAGADGALTGTYVTARGNAESRYVLTGRYDSAPATDGSGTALGWTVAWKNNYRNAHSATTWSGQYVGGAEARINTQWLLTSGTTEYNAFMSTLVGHDTFTKVKPSAAS
945
